B1: CPEB3 Ribozyme (parent)
chain: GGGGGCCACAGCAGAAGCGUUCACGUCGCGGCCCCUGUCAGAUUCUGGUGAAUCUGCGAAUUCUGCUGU

Variants of: B1
Protocol text: self-cleavage, relative activity (ratio to wild type); higher = more cleavage; co-transcriptional

Mutant label: A15G C24U
self-cleavage: 0.87
--
Mutant label: C32G A52U
self-cleavage: 0.48
--
Mutant label: C24A G30C
self-cleavage: 0.159
--
Mutant label: G58C U64G
self-cleavage: 0.893
--
Mutant label: G2U A52U
self-cleavage: 0.0917
--
Mutant label: G4U G48U
self-cleavage: 0.813
--
Mutant label: G4A G47U
self-cleavage: 0.899
--
Mutant label: A15G G31U
self-cleavage: 0.558
--
Mutant label: G11U G50A
self-cleavage: 0.896
--
Mutant label: A52C U69A
self-cleavage: 0.977
--
Mutant label: G17U A59C
self-cleavage: 0.179
